Values from PubChem BioAssay (NCATS)

experiment: qHTS for Hypoxia signaling pathway (HIF-1) antagonists against the NCATS CANVASS Library (AID 1347374); conditions: HRE-bla ME-180 cells, HIF-1 beta-lactamase reporter, CoCl2; series mostly up to 38.3 µM; note: nearly all actives have a fitted effect of over 60% in size
Records with an inconclusive call do not appear. Calls of active or inactive are those of the source. Calls come from the whole dose curve; as a rule, active = well fitted inhibition curve with a large enough effect; inconclusive = small, poorly fitted or top-dose-only effect; inactive = no such curve, though single readings can be large or run the other way.
Classes used: t = active, f = inactive

INSERT INTO assay_data (molecule, group) VALUES
  ('C[C@]12CCC3[C@@H](CC[C@@H]4C[C@@H](O)CC[C@]34CO)[C@@]1(O)CC[C@@H]2C1=CC(=O)OC1 (some centres undefined)', 't'),
  ('O[C@H]1C=C[C@@]23CCN(Cc4cc5c(cc42)OCO5)[C@@H]3C1', 'f'),
  ('CO[C@H]1C[C@H](O[C@H]2[C@@H](O)C[C@H](O[C@H]3CC[C@]4(C=O)[C@H]5CC[C@]6(C)C(C7=CC(=O)OC7)CC[C@]6(O)[C@@H]5CC[C@]4(O)C3)O[C@@H]2C)O[C@H](C)[C@H]1O[C@H]1C[C@@H](OC)[C@@H](O[C@@H]2O[C@H](CO)[C@@H](O)[C@H](O)[C@H]2O)[C@@H](C)O1 (some centres undefined)', 't'),
  ('C=C(C)[C@H]1C(=O)c2c3c(cc4c5c(n1c24)[C@@]1(C)[C@@H](CC[C@H]2[C@](C)(/C=C/C=C(\C)C(=O)O)[C@@H](O)CC[C@@]21C)C5)C1=CC(C)(C)OC(C)(C)[C@H]1[C@@H]3O', 't'),
  ('C/C=C1/CN2CC[C@@]34c5ccccc5N(C)[C@@H]3[C@@H]2C[C@@H]1[C@H]4C(=O)OC', 'f'),
  ('CC[C@H]1CN2CCc3c([nH]c4cccc(OC)c34)[C@@H]2C[C@@H]1/C(=C\OC)C(=O)OC', 'f'),
  ('CC[C@@H]1CN2CCc3c([nH]c4cccc(OC)c34)[C@@H]2C[C@@H]1/C(=C\OC)C(=O)OC', 'f'),
  ('CO[C@@]12c3c(C)cc(O)c4c(=O)occ(c34)C(=O)[C@@H]1[C@]13COC(=O)c4c(O)cc(C)c(c41)C(=O)[C@H]2[C@@H]3OC(C)=O', 'f'),
  ('CC[C@]12C=CCN3CC[C@]4(C(=C(C(=O)OC)C1)Nc1ccccc14)[C@@H]32', 'f'),
  ('c1ccc2nc3c(cc2c1)[nH]c1ccccc13', 'f'),
  ('C=C[C@H]1CN2CCc3c([nH]c4cccc(OC)c34)[C@@H]2C[C@@H]1/C(=C\OC)C(=O)OC', 'f'),
  ('C[C@]12CC(O)C3[C@@H](CC[C@@H]4C[C@@H](O)CC[C@]34CO)[C@@]1(O)CC[C@@H]2C1=CC(=O)OC1 (some centres undefined)', 't'),
  ('CCC(=O)N[C@@H](C[C@H](C)C(Cl)(Cl)Cl)C(=O)N1C(=O)C=C(OC)[C@@H]1C[C@H](C)C(Cl)Cl', 'f'),
  ('CO[C@H]1[C@H](O[C@H]2CC[C@]3(C=O)[C@H]4CC[C@]5(C)[C@@H](C6=CC(=O)OC6)CC[C@]5(O)[C@@H]4CC[C@]3(O)C2)O[C@H](C)[C@H](O)[C@@H]1OC', 't');
